- tgt: Aryl hydrocarbon receptor (Homo sapiens) (UniProt P35869)
- Sequence (P35869 whole entry, looked up): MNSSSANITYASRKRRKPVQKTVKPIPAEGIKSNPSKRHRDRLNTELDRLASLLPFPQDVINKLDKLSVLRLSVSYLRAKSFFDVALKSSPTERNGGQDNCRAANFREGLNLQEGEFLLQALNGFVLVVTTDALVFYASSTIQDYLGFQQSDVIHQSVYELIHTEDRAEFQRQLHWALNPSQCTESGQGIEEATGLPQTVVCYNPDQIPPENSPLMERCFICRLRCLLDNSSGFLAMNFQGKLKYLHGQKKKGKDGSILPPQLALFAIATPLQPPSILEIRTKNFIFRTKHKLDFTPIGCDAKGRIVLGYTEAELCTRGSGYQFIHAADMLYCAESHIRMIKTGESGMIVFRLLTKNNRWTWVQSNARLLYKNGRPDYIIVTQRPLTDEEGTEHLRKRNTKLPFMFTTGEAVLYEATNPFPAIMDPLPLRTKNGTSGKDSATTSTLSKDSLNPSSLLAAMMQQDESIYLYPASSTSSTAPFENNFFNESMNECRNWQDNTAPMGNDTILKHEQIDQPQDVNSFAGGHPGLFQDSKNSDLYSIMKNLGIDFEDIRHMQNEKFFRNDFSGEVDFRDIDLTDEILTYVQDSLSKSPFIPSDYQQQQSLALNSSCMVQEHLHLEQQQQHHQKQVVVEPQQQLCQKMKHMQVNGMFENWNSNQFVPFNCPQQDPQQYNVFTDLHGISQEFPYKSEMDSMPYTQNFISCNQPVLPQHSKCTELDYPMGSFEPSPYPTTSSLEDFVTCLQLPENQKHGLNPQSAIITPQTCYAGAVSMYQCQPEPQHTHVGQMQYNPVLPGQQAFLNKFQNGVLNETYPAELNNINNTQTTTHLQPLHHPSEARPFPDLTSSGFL
- assay_comment: qHTS assay to identify small molecule that activate the aryl hydrocarbon receptor (AhR) signaling pathway (AID 743085);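 further: HG2L7.5c1 human HepG2 liver cells with stably integrated DRE-driven firefly reporter; nearly all actives have a fitted effect of over 15% in size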
- condition_details: HepG2 AhR-luc (HG2L7.5c1), luciferase, 24 h; series mostly up to 70.3 µM
Inconclusive results are not listed. The source made the active and inactive calls. The call rests on the fitted dose curve; in most records, active means well fitted activation curve with a large enough effect in the repeat runs; inconclusive means weak or mixed curves; inactive means no such curve, though single readings can be large or run the other way.
Outcomes you can answer with include only these: TRUE (active), FALSE (inactive)

Worked examples follow.
[
  {
    "compound": "N#Cc1cccnc1",
    "tgt": "Aryl hydrocarbon receptor (Homo sapiens) (UniProt P35869)",
    "cat": "FALSE"
  },
  {
    "compound": "CCOC(=O)c1ccccc1N",
    "tgt": "Aryl hydrocarbon receptor (Homo sapiens) (UniProt P35869)",
    "cat": "FALSE"
  },
  {
    "compound": "O=C1Nc2ccc(Cl)cc2C(c2ccccc2)=NC1O (centres undefined)",
    "tgt": "Aryl hydrocarbon receptor (Homo sapiens) (UniProt P35869)",
    "cat": "FALSE"
  }
]

Incoming: Just curious, what result did CC1(C)Cc2cccc(O)c2O1 get here?
Outgoing: FALSE
